Reference source: patent US7056679

Attribute: LDH (OD)
testTarget: T1, lactate dehydrogenase (LDH)
T1 construct: Coated at 500 ng/well as non-specific target; also called LDH polypeptide
testMethodNotes: phage ELISA
observationType: LDH (OD)

>>> quantitativereadout("FGRDGDGIQRRQGGFSWVGDRAAAGAPVPYPDPLEPRP [DGI-2-20F-PP-E2]")
0.7
>>> quantitativereadout("VVHTRAWGSWAYGFVLRNRGAAAGAPVPYPDPLEPRP [DGI-2-20F-PP-F10]")
1.3
>>> quantitativereadout("EGNWFCAVFRGFCVGDRGPEAAAGAPVPYPDPLEPRP [DGI-2-20R-3-A1]")
1.1
